Target: Prostaglandin G/H synthase 1 (Ovis aries, UniProt P05979)
Sequence (P05979 whole entry): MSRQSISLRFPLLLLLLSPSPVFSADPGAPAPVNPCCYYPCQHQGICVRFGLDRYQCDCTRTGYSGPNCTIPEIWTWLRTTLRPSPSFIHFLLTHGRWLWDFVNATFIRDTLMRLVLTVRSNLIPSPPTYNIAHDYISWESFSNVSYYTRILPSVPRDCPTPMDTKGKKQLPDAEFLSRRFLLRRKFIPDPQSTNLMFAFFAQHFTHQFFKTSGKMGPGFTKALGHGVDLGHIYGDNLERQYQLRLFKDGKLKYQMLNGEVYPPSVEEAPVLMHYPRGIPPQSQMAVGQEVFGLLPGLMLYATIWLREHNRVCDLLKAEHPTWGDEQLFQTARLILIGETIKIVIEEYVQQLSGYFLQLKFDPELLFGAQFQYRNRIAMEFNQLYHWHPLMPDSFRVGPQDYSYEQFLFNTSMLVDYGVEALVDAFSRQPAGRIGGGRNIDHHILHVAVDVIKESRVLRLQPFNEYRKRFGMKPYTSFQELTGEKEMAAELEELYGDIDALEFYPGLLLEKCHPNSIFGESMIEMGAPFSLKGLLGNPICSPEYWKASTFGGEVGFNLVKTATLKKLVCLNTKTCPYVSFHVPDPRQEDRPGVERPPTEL
pIC50: −log10 of the molar value.
parameter: pIC50

CS(=O)(=O)Nc1ccc(C2=C(c3ccccc3)C(=O)OC2)cc1    4.50
CS(=O)(=O)Nc1ccc(C2=C(c3ccc(Cl)cc3)C(=O)OC2)cc1    4.50

###

species: Ovis aries; assay: Selectivity index, ratio of IC50 for ovine COX1 to IC50 for ovine COX2
parameter: COX1/COX2 IC50 selectivity index

I: CS(=O)(=O)Nc1ccc(C2=C(c3ccc(F)cc3)C(=O)OC2)cc1
II: CS(=O)(=O)Nc1ccc(C2=C(c3ccccc3)C(=O)OC2)cc1
III: CS(=O)(=O)Nc1ccc(C2=C(c3ccc(Br)cc3)C(=O)OC2)cc1
IV: CS(=O)(=O)Nc1ccc(C2=C(c3ccc(Cl)cc3)C(=O)OC2)cc1
Sort these compounds on COX1/COX2 IC50 selectivity index so the largest reading comes first. Form entry: ranked labels (order as requested).
IV, II, III, I

Measured values drawn from ChEMBL document CHEMBL1144527 for this set.
